measured on: CFTR in F508del/MF-HBE cells (Homo sapiens, UniProt P13569, DEL508-508)
Construct: human bronchial epithelial (HBE) cells derived from CF subjects; endogenous in cells
Sequence (P13569 with tags, fused parts or gaps DEL508-508): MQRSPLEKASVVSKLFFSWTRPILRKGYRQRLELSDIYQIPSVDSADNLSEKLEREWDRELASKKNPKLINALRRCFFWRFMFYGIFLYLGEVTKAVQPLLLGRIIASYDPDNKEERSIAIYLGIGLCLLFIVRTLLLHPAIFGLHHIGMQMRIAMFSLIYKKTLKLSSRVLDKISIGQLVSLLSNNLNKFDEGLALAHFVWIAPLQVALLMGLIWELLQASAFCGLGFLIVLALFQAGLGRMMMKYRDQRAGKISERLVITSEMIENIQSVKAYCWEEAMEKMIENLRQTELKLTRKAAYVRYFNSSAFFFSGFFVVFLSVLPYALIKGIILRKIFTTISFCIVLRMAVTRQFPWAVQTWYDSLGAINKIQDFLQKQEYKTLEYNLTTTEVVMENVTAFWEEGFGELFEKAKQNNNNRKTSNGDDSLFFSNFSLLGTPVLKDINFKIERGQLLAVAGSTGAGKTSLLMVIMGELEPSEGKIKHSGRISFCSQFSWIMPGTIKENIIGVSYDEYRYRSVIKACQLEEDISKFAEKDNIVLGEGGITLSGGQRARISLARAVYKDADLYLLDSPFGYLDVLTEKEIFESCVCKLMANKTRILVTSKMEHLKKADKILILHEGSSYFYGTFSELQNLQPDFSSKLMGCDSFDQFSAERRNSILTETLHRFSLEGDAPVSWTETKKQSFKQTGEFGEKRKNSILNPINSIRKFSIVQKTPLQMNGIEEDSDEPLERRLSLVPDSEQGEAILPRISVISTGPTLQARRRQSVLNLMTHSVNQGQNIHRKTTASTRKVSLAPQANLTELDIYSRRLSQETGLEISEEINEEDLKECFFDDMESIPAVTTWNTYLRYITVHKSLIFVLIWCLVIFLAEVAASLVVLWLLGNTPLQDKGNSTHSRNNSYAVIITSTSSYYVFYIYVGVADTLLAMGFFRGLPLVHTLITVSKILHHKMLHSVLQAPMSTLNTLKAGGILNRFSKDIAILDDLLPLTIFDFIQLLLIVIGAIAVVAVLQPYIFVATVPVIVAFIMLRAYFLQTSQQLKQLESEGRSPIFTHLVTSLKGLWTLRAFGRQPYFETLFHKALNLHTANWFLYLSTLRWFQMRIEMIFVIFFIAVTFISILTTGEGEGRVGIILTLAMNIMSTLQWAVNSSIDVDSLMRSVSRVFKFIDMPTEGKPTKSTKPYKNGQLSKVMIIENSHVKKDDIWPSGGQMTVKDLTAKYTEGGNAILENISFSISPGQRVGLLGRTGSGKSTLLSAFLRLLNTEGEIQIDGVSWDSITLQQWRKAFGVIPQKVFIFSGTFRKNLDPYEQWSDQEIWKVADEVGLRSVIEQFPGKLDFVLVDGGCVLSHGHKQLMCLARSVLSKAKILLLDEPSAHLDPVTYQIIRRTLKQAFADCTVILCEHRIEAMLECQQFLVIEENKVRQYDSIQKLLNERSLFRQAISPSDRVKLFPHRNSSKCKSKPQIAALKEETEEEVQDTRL
experiment description: Ussing chamber assay of CFTR-mediated short-circuit currents (potentiator activity)
setup conditions: 18-24 hours at 37° C. with 10 μM Compound VII, 20% human serum, CFTR-mediated ISC
pEC50: −log10 of the molar value.
observed property: pEC50

Input line: For the compound CC1(C)CCCCC[C@](O)(C(F)(F)F)C2=NN=C(O2)c2nc(c(C(F)(F)F)cc2N)N1 [Compound I] , give its measured pEC50 value.
Output line: > 6.30
